The following compounds are shown together with reported MIC values.
Test system: Streptococcus pneumoniae
Measurement protocol: Antibacterial activity against erythromycin-resistant Streptococcus pneumoniae A22072 expressing mefA gene after 24 hrs by broth dilution assay
Type: functional
Condition info: A22072, 24 h
Kindly format the answer as number then unit.

## Input // MIC lookup, key: `CC[C@H]1OC(=O)[C@H](C)[C@@H](OC(=O)NCc2ccc(N)cc2)[C@H](C)[C@@H](O[C@@H]2O[C@H](C)C[C@H](N(C)C)[C@H]2O)[C@](C)(OC)C[C@@H](C)/C(=N/OCc2ccccc2Cl)[C@H](C)[C@@H](O)[C@]1(C)O`
## Output 0.5 µg/mL

###

System: Streptococcus pneumoniae
Measurement protocol: Antibacterial activity against erythromycin-resistant Streptococcus pneumoniae A22072 expressing mefA gene after 24 hrs by broth dilution assay
Format: functional
Condition info: A22072, 24 h
Parameter: MIC (µg/mL)
Give the quantity in µg/mL, number only.

Structure as smiles | MIC (µg/mL)
CC[C@H]1OC(=O)[C@H](C)[C@@H](OC(=O)NCc2cccc(F)c2)[C@H](C)[C@@H](O[C@@H]2O[C@H](C)C[C@H](N(C)C)[C@H]2O)[C@](C)(OC)C[C@@H](C)/C(=N/OCc2ccccc2Cl)[C@H](C)[C@@H](O)[C@]1(C)O | 0.5

## Input If you can, please state the reported MIC value of `CC[C@H]1OC(=O)[C@H](C)[C@@H](OC(=O)NC2CC2)[C@H](C)[C@@H](O[C@@H]2O[C@H](C)C[C@H](N(C)C)[C@H]2O)[C@](C)(OC)C[C@@H](C)/C(=N/OCc2ccccc2Cl)[C@H](C)[C@@H](O)[C@]1(C)O` .
## Output 0.125

## Input Also need `CC[C@H]1OC(=O)[C@H](C)[C@@H](OC(=O)NCCc2ccc(F)cc2)[C@H](C)[C@@H](O[C@@H]2O[C@H](C)C[C@H](N(C)C)[C@H]2O)[C@](C)(OC)C[C@@H](C)/C(=N/OCc2ccccc2Cl)[C@H](C)[C@@H](O)[C@]1(C)O` , thanks.
## Output 1

## Input Proceed to `CCCNC(=O)O[C@H]1[C@H](C)[C@@H](O[C@@H]2O[C@H](C)C[C@H](N(C)C)[C@H]2O)[C@](C)(OC)C[C@@H](C)/C(=N/OCc2ccccc2Cl)[C@H](C)[C@@H](O)[C@](C)(O)[C@@H](CC)OC(=O)[C@@H]1C`
## Output 0.125

###

MIC for assorted molecules
Tested on: Streptococcus pyogenes
Measurement protocol: Antibacterial activity against erythromycin-susceptible Streptococcus pyogenes 1 after 24 hrs by broth dilution assay
Assay type: functional
Condition info: Streptococcus pyogenes, 1, 24 h
The answer consists of two parts: a number and, after it, its unit.

Sample answers from the record:
Structure as smiles | Test value
CC[C@H]1OC(=O)[C@H](C)[C@@H](OC(=O)NCC(C)C)[C@H](C)[C@@H](O[C@@H]2O[C@H](C)C[C@H](N(C)C)[C@H]2O)[C@](C)(OC)C[C@@H](C)/C(=N/OCc2ccccc2Cl)[C@H](C)[C@@H](O)[C@]1(C)O | 1 µg/mL
CC[C@H]1OC(=O)[C@H](C)[C@@H](OC(=O)NCCc2ccc(OC)c(OC)c2)[C@H](C)[C@@H](O[C@@H]2O[C@H](C)C[C@H](N(C)C)[C@H]2O)[C@](C)(OC)C[C@@H](C)/C(=N/OCc2ccccc2Cl)[C@H](C)[C@@H](O)[C@]1(C)O | 1 µg/mL
CC[C@H]1OC(=O)[C@H](C)[C@@H](O[C@H]2C[C@@](C)(OC)[C@@H](O)[C@H](C)O2)[C@H](C)[C@@H](O[C@@H]2O[C@H](C)C[C@H](N(C)C)[C@H]2O)[C@](C)(OC)C[C@@H](C)C(=O)[C@H](C)[C@@H](O)[C@]1(C)O | 0.03 µg/mL
CC[C@H]1OC(=O)[C@H](C)[C@@H](OC(=O)NCCc2ccc(F)cc2)[C@H](C)[C@@H](O[C@@H]2O[C@H](C)C[C@H](N(C)C)[C@H]2O)[C@](C)(OC)C[C@@H](C)/C(=N/OCc2ccccc2Cl)[C@H](C)[C@@H](O)[C@]1(C)O | 2 µg/mL
CC[C@H]1OC(=O)[C@H](C)[C@@H](OC(=O)NCc2ccco2)[C@H](C)[C@@H](O[C@@H]2O[C@H](C)C[C@H](N(C)C)[C@H]2O)[C@](C)(OC)C[C@@H](C)/C(=N/OCc2ccccc2Cl)[C@H](C)[C@@H](O)[C@]1(C)O | 4 µg/mL
CC[C@H]1OC(=O)[C@H](C)[C@@H](OC(=O)NCCc2ccc(O)cc2)[C@H](C)[C@@H](O[C@@H]2O[C@H](C)C[C@H](N(C)C)[C@H]2O)[C@](C)(OC)C[C@@H](C)/C(=N/OCc2ccccc2Cl)[C@H](C)[C@@H](O)[C@]1(C)O | 0.5 µg/mL
CCCNC(=O)O[C@H]1[C@H](C)[C@@H](O[C@@H]2O[C@H](C)C[C@H](N(C)C)[C@H]2O)[C@](C)(OC)C[C@@H](C)/C(=N/OCc2ccccc2Cl)[C@H](C)[C@@H](O)[C@](C)(O)[C@@H](CC)OC(=O)[C@@H]1C | 1 µg/mL

## Input Fill in the blank: the reported MIC of `CC[C@H]1OC(=O)[C@H](C)[C@@H](OC(=O)NC2CCCC2)[C@H](C)[C@@H](O[C@@H]2O[C@H](C)C[C@H](N(C)C)[C@H]2O)[C@](C)(OC)C[C@@H](C)/C(=N/OCc2ccccc2Cl)[C@H](C)[C@@H](O)[C@]1(C)O` is ____.
## Output 2 µg/mL

Recorded values, source ChEMBL document CHEMBL4261593.
